- Assay target: T1, histidine-tagged human SORT1 (R&D Systems) (human, UniProt Q99523 78-755)
- T1 construct: Bought recombinant protein; also called His-tagged human SORT1; not shown: histidine tag
- T1 sequence: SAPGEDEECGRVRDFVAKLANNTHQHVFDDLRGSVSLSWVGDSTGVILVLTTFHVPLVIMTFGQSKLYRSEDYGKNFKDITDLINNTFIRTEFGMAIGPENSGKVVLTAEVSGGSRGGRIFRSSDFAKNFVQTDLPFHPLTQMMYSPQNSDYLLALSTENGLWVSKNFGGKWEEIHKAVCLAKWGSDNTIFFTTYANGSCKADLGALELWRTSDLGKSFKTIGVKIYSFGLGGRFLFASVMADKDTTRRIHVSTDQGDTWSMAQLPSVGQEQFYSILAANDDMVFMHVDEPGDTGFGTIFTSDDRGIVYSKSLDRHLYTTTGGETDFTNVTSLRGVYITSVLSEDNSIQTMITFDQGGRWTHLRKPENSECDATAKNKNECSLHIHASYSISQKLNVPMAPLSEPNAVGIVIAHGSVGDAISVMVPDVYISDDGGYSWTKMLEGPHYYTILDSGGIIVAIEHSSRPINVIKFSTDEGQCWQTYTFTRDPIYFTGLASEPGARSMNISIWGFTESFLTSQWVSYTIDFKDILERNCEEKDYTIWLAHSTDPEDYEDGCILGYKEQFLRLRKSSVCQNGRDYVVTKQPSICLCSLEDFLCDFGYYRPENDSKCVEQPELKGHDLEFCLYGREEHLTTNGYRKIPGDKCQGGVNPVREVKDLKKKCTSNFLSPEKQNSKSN
- Protocol summary: BLI (Octet RED96), antibody captured on anti-human IgG Fc sensor, 20 nM His-tagged human SORT1, 1:1 fit
Quantity kind: kon (M⁻¹ s⁻¹)
Please respond with the number in M⁻¹ s⁻¹ and leave the unit unwritten.

Known kon results, listed for orientation:
S-60-15.16 [N33M] (antibody, human IgG1, kappa, L234A L235A, V domains shown, huIgG1 LALAPS) VH: QVQLQESGPGLVKPSETLSLTCAVSGYSISSGYYWGWIRQPPGKGLEWIGTIYHSGSTYYNPSLKSRVTISVDTSKNQFSLKLSSVTAADTAVYYCARQGSIKQGYYGMDVWGQGTTVTVSS VL: DIVMTQSPLSLPVTPGEPASISCRSSQSLLRSMGYNYLDWYLQKPGQSPQLLIYLGSNRASGVPDRFSGSGSGTDFTLKISRAEAEDVGVYYCMQQQEAPLTFGGGTKVEIKR = 495000
S-60-15.3 [N33G] (antibody, human IgG1, kappa, L234A L235A, V domains shown, huIgG1 LALAPS) VH: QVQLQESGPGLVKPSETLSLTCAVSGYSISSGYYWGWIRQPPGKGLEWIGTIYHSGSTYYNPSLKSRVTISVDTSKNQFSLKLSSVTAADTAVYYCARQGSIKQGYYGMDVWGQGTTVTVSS VL: DIVMTQSPLSLPVTPGEPASISCRSSQSLLRSGGYNYLDWYLQKPGQSPQLLIYLGSNRASGVPDRFSGSGSGTDFTLKISRAEAEDVGVYYCMQQQEAPLTFGGGTKVEIKR = 498000

Proceed to the following item.
Req: Quickly give me recorded kon for S-60-15.11 [N33W] (antibody, human IgG1, kappa, L234A L235A, V domains shown, huIgG1 LALAPS) VH: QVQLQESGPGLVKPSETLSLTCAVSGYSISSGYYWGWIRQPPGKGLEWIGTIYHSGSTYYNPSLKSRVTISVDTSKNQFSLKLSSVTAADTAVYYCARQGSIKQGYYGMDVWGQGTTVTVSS VL: DIVMTQSPLSLPVTPGEPASISCRSSQSLLRSWGYNYLDWYLQKPGQSPQLLIYLGSNRASGVPDRFSGSGSGTDFTLKISRAEAEDVGVYYCMQQQEAPLTFGGGTKVEIKR
Resp: 601000
